# TEST_METHOD_NOTES: chemical genetic growth profiling, strain panel (AID 1159580);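 note: tested at 20 µM; growth read once vehicle control cultures reached saturation at 30 °C; 1 = growth at the plate median or of vehicle wells; lower values mean less growth of the strain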
# EXPERIMENTAL_CONDITIONS: S. cerevisiae deletion strains, growth OD, locus YHR013C, strain ard1, active compounds read low
The whole screen tested about 5,500 compounds, of which about 2,000 (36%) were called active. Roughly 18% stayed inconclusive and do not appear here. Some of the results follow.
Each entry below carries its recorded normalized growth.
// no unit string in output, number only

See these solved cases before continuing.
[
  {
    "COMPOUND": "COC1(C)CCC2OC2(C)CCC2C1CC2(C)C (centres undefined)",
    "normalized growth": 1.03
  },
  {
    "COMPOUND": "COc1ccc2c(=O)ccoc2c1",
    "normalized growth": 1.08
  },
  {
    "COMPOUND": "C[C@]12CCC(=O)C=C1CCC1C2C(=O)C[C@@]2(C)C1CC[C@]2(O)C(=O)CO (some centres undefined)",
    "normalized growth": 0.979
  },
  {
    "COMPOUND": "CNCC[C@@H](Oc1ccccc1)c1ccccc1",
    "normalized growth": 0.973
  },
  {
    "COMPOUND": "C#C[C@]1(O)CCC2C3CCC4=Cc5oncc5C[C@]4(C)C3CC[C@@]21C (some centres undefined)",
    "normalized growth": 1.01
  }
]

What value of normalized growth has been recorded for this entry: COc1cc(-c2oc3cc(O)ccc3c(=O)c2O)ccc1O
0.814

Consider the compound shown here: O=c1c(O)c(-c2ccc(O)c(O)c2)oc2cc(O)ccc12 What is its recorded normalized growth?
0.94

// normalized growth lookup, key: CC(NCCC(c1ccccc1)c1ccccc1)c1ccccc1 (centres undefined)
0.655

So what does the record say about normalized growth for COc1ccc(-c2oc3ccccc3c(=O)c2O)cc1OC ?
0.466

So what does the record say about normalized growth for CN(C)CCc1c[nH]c2ccc(CS(=O)(=O)N3CCCC3)cc12 ?
1.02

====

# TEST_METHOD_NOTES: chemical genetic growth profiling, strain panel (AID 1159580)
# EXPERIMENTAL_CONDITIONS: S. cerevisiae deletion strains, growth OD, locus YLR221C, strain rsa3
Out of some 5,500 compounds screened, about 2,000 (36%) were called active. Roughly 18% stayed inconclusive and do not appear here. No stated cut-off is given here; in the data, active means normalized growth mostly below about 0.91 (no sharp cut-off); inconclusive means no clear call, values can overlap the other calls; inactive means mostly above about 0.92. The list shows a part of the results.
Pick from 1 (yes) for active, 0 (no) for inactive when you respond.

[
  {
    "CHEMICAL_SMILES": "CC(=O)N[C@@H](Cc1c[nH]c2ccccc12)C(=O)O",
    "ASSIGNED_CLASS": "0 (no)"
  }
]

What was the test verdict on OCc1c[nH]c2ccccc12 ?
1 (yes)

Test call for this compound, please: c1ccc2c(Cc3c[nH]c4ccccc34)c[nH]c2c1
1 (yes)

For Cc1cc(=O)n(-c2ccccc2)n1C , which call appears in the assay record?
0 (no)

====

# TEST_METHOD_NOTES: chemical genetic growth profiling, strain panel (AID 1159580)
# EXPERIMENTAL_CONDITIONS: S. cerevisiae deletion strains, growth OD, locus YKL190W, strain CNB1, active compounds read low
In all, about 5,500 compounds went through this assay and about 2,000 (36%) were called active. About 18% were inconclusive and are not listed. The list shows a part of the results.
# normalized growth annotations

[
  {
    "COMPOUND": "CC(NCCC(c1ccccc1)c1ccccc1)c1ccccc1 (configuration not stated)",
    "normalized growth": "0.988 (inactive)"
  },
  {
    "COMPOUND": "O=C(O)c1cc(=O)c2cccc(O)c2[nH]1",
    "normalized growth": "0.982 (inactive)"
  },
  {
    "COMPOUND": "O=C1c2ccccc2C(=O)C1c1ccccc1",
    "normalized growth": "1 (inactive)"
  },
  {
    "COMPOUND": "CCC1(CC)C(=O)C=CNC1=O",
    "normalized growth": "1 (inactive)"
  },
  {
    "COMPOUND": "CO[C@@]1(NC(=O)Cc2cccs2)C(=O)N2C(C(=O)O)=C(COC(N)=O)CS[C@@H]21",
    "normalized growth": "1.01 (inactive)"
  },
  {
    "COMPOUND": "NC1CC1c1ccccc1 (configuration not stated)",
    "normalized growth": "1.02 (inactive)"
  }
]

Continue with the next compound.
Query (compound): C=C(C)[C@@H]1CC[C@]2(CO)CC[C@]3(C)[C@H](CCC4[C@@]5(C)CC[C@H](O)C(C)(C)C5CC[C@]43C)C12 (some centres not stated) ; field requested: normalized growth
1.03 (inactive)

====

# TEST_METHOD_NOTES: chemical genetic growth profiling, strain panel (AID 1159580);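 note: tested at 20 µM; growth read once vehicle control cultures reached saturation at 30 °C; 1 = growth at the plate median or of vehicle wells; lower values mean less growth of the strain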
# EXPERIMENTAL_CONDITIONS: S. cerevisiae deletion strains, growth OD, locus YDR335W, strain msn5, active compounds read low
About 2,000 (36%) of roughly 5,500 compounds were called active. Not shown: some 18% with an inconclusive outcome. Some of the results follow.
Property: normalized growth; scope: individual compounds
No unit in the answer, only the number.

Example cases with answers are listed next.
[
  {
    "COMPOUND": "COc1c2occc2c(OC)c2c(=O)cc(C)oc12",
    "ENDPOINT_RESULT": 0.987
  },
  {
    "COMPOUND": "O=c1oc2c(O)c(O)cc3c(=O)oc4c(O)c(O)cc1c4c23",
    "ENDPOINT_RESULT": 0.784
  },
  {
    "COMPOUND": "COc1ccc2c(c1)[C@]13CCCC[C@H]1[C@H](C2)N(C)CC3",
    "ENDPOINT_RESULT": 0.949
  },
  {
    "COMPOUND": "COc1ccc2c(=O)ccoc2c1",
    "ENDPOINT_RESULT": 1.02
  },
  {
    "COMPOUND": "COc1ccc(-c2oc3ccccc3c(=O)c2O)cc1OC",
    "ENDPOINT_RESULT": 0.683
  }
]

// lookup normalized growth for COc1c2ccoc2cc2oc(C)cc(=O)c12
1

Which normalized growth reading was recorded for the compound COc1c2c(cc3c1OCO3)C13C=C[C@H](OC)CC1N(C2)CC3O (some centres not stated) ?
0.972

====

# TEST_METHOD_NOTES: chemical genetic growth profiling, strain panel (AID 1159580);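 note: tested at 20 µM; growth read once vehicle control cultures reached saturation at 30 °C; 1 = growth at the plate median or of vehicle wells; lower values mean less growth of the strain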
# EXPERIMENTAL_CONDITIONS: S. cerevisiae deletion strains, growth OD, locus YNL298W, strain CLA4, active compounds read low
In all, about 5,500 compounds went through this assay and about 2,000 (36%) were called active. Not shown: some 18% with an inconclusive outcome. The list shows a part of the results.
MEASUREMENT_LABEL: normalized growth
Respond numerically, and do not add a unit to the figure.

[
  {
    "COMPOUND": "NCC1OC(OC2C(CO)OC(OC3C(O)C(N)CC(N)C3OC3OC(CO)C(O)CC3N)C2O)C(N)C(O)C1OC1OC(CO)C(O)C(O)C1O (stereo not drawn)",
    "ENDPOINT_RESULT": 0.984
  },
  {
    "COMPOUND": "CN1CCN(CCC=C2c3ccccc3Sc3ccc(S(=O)(=O)N(C)C)cc32)CC1",
    "ENDPOINT_RESULT": 0.977
  },
  {
    "COMPOUND": "CC(=O)OCC(=O)[C@@]1(O)CCC2C3CCC4=CC(=O)CC[C@]4(C)C3[C@@H](O)C[C@@]21C (stereo partly drawn)",
    "ENDPOINT_RESULT": 0.995
  },
  {
    "COMPOUND": "CCOC([O-])=Nc1c[n+](N2CCOCC2)no1",
    "ENDPOINT_RESULT": 0.982
  }
]

Recorded normalized growth for CN1CCN(CCCN2c3ccccc3Sc3ccc(C(F)(F)F)cc32)CC1 , please?
0.938

Sample C[C@]12CCC(=O)C=C1CCC1C2C(=O)C[C@@]2(C)C1CC[C@]2(O)C(=O)CO (stereo partly drawn) — what was its normalized growth?
1.02

Field request: normalized growth | item: C[C@]12CCC(=O)C=C1CCC1C2[C@@H](O)C[C@@]2(C)C1CC[C@]2(O)C(=O)COC(=O)CCC(=O)O (stereo partly drawn)
1.01

# input compound: COC(=O)C[C@H]1C(C)(C)[C@@H](O)[C@@H]2CC3=C4C=C(OC)O[C@@H](c5ccoc5)[C@]4(C)CCC3[C@@]1(C)C2=O (stereo partly drawn) ; wanted: its normalized growth
0.984

====

# TEST_METHOD_NOTES: chemical genetic growth profiling, strain panel (AID 1159580);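 note: tested at 20 µM; growth read once vehicle control cultures reached saturation at 30 °C; 1 = growth at the plate median or of vehicle wells; lower values mean less growth of the strain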
# EXPERIMENTAL_CONDITIONS: S. cerevisiae deletion strains, growth OD, locus YGL078C, strain dbp3, active compounds read low
In all, about 5,500 compounds went through this assay and about 2,000 (36%) were called active. Roughly 18% stayed inconclusive and do not appear here. The list shows a part of the results.
MEASUREMENT_LABEL: normalized growth
// print number alone

The following compounds have reported results that may help.
[
  {
    "COMPOUND": "C1CCC(C(CC2CCCCN2)C2CCCCC2)CC1 (stereo not drawn)",
    "ENDPOINT_RESULT": 0.999
  },
  {
    "COMPOUND": "CC(=O)OCC(=O)[C@@]12OC3(CCCC3)O[C@@H]1CC1C3CCC4=CC(=O)C=C[C@]4(C)[C@@]3(F)[C@@H](O)C[C@@]12C (stereo partly drawn)",
    "ENDPOINT_RESULT": 0.987
  }
]

Which normalized growth is reported for this compound? CC1(C)C(=O)[C@@H]2C[C@@]3(O)C4=CC(=O)O[C@@H](c5ccoc5)[C@]4(C)CCC3[C@@](C)(C2=O)[C@H]1CC(=O)O (stereo partly drawn)
0.996
